- Test system: HaCaT human keratinocytes
- assayInfo: Cell toxicity assay (MTS)
- Format: cell-based
Each record's Relative to chlorhexidine (factor by which cytotoxicity was reduced) is compared with range 1 = under 2, range 2 = from 2 up to 60, range 3 = 60 and over to give its class.

Query :: Could you place NCCCNCCCCNCCCN in its proper category? Many thanks.
Result :: range 3

Query :: Then what about the compound N=C(N)NCCCCCCNc1nc(NCCCCCCNC(=N)N)nc(NCCCCCCNC(=N)N)n1 ?
Result :: range 2

Query :: Then what about the compound N=C(NCCCCCCCCNc1nc(NCCCCCCCCN)nc(NCCCCCCCCNC(=N)Nc2ccccc2)n1)Nc1ccccc1 ?
Result :: range 1

Query :: Then what about the compound N=C(NCCCCCCCCNc1nc(NCCCCCCCCNC(=N)Nc2ccccc2)nc(NCCCCCCCCNC(=N)Nc2ccccc2)n1)Nc1ccccc1 ?
Result :: range 1

Query :: Then what about the compound N=C(NCCCN(CCCCN(CCCNC(=N)Nc1ccccc1)C(=N)Nc1ccccc1)C(=N)Nc1ccccc1)Nc1ccccc1 ?
Result :: range 2

Query :: Then what about the compound N=C(NCCCCN(CCCNC(=N)Nc1ccccc1)C(=N)Nc1ccccc1)Nc1ccccc1 ?
Result :: range 3

Query :: Then what about the compound N=C(N)NCCCCCCCCNc1nc(NCCCCCCCCNC(=N)N)nc(NCCCCCCCCNC(=N)N)n1 ?
Result :: range 1

Query :: Then what about the compound NCCCCNCCCN ?
Result :: range 3

Query :: Then what about the compound N=C(NCCCCCCNc1nc(NCCCCCCNC(=N)Nc2ccccc2)nc(NCCCCCCNC(=N)Nc2ccccc2)n1)Nc1ccccc1 [THAM-3ΦG, Trishexylaminomelamine trisphenylguanide] ?
Result :: range 2

Query :: Then what about the compound NCCCCCCNc1nc(NCCCCCCN)nc(NCCCCCCN)n1 ?
Result :: range 3

Query :: Then what about the compound NCCCCCCCCNc1nc(NCCCCCCCCN)nc(NCCCCCCCCN)n1 ?
Result :: range 2

----------
- System: S. aureus RN4220
- assayInfo: Bacterial viability assay
- Type: cell-based, Staphylococcus aureus
- settings: one hour in PBS, CFU, ± SEM
- Procedure: Supplementary file pone.0097742.s003.doc: Table S1 Bacterial viability assays. Bacteria were grown at 37°C to mid-log phase (OD600 ∼0.4). […] IC50s were calculated from graphs of CFU as a function of compound concentration. […] Bacterial viability assays. […] IC50s were calculated from graphs of CFU as a function of compound concentration. […]
Give measured IC50 for each item. Keep answers brief.
Report the value in µM with no unit label.

Query :: Could you tell me which IC50 is on file for N=C(N)NCCCCCCCCNc1nc(NCCCCCCCCNC(=N)N)nc(NCCCCCCCCNC(=N)N)n1 ?
Result :: 4.7

Query :: Then what about the compound N=C(NCCCCCCCCNc1nc(NCCCCCCCCNC(=N)Nc2ccccc2)nc(NCCCCCCCCNC(=N)Nc2ccccc2)n1)Nc1ccccc1 ?
Result :: 0.54

Query :: Then what about the compound N=C(NCCCCCCCCNc1nc(NCCCCCCCCN)nc(NCCCCCCCCNC(=N)Nc2ccccc2)n1)Nc1ccccc1 ?
Result :: 2.4

----------
- assayInfo: Cell toxicity assay (MTS)
- Assay type: cell-based, human
- settings: human, MDA-MB-231 breast cancer cells (ATCC HTB-26); MDA-231; MTS assay; concentration which killed 50% of the cells
quantityName: CC50 (µg/mL)
Report the value in µg/mL with no unit label.

Query :: Could you tell me which CC50 is on file for N=C(NCCCCCCNc1nc(NCCCCCCNC(=N)Nc2ccccc2)nc(NCCCCCCNC(=N)Nc2ccccc2)n1)Nc1ccccc1 [THAM-3ΦG, Trishexylaminomelamine trisphenylguanide] ?
Result :: 7.6

Query :: Then what about the compound [H]/N=C(\N/C(=N/[H])NCCCCCCNC(=N)NC(=N)Nc1ccc(Cl)cc1)Nc1ccc(Cl)cc1 [Chlorhexidine, chlorhexidine, reference compound] ?
Result :: 2.6

Query :: Then what about the compound NCCCCNCCCN ?
Result :: 22

Query :: Then what about the compound NCCCNCCCCNCCCN ?
Result :: 10
